- PROTOCOL_NOTES: qHTS Assay for Lipid Storage Modulators in Drosophila S3 Cells;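 note: cells counted by Cell Tracker Red CMTPX staining in the red channel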
- CONDITION: BODIPY lipid droplet fluorescence, 18-24 h, cells fed with added oleic acid; measured here: cell count max response
Screen size: about 320,000 compounds; about 2,100 (0.66%) were called active. Roughly 53% stayed inconclusive and do not appear here. What follows is part of a selection rich in actives, with near analogues and random picks from the rest.
ATTRIBUTE_MEASURED: cell number change (%)
Enter your answer as a number in %; do not include the unit.

Request: # query: cell number change of entry CCCc1cc(=O)oc2cc(C)cc(OC(C)C(=O)NCCCN3CCOCC3)c12 (stereo not given)
Response: 6.42

Request: # query: cell number change of entry Cc1ccc(C(=O)CCC(=O)OCC(=O)N(CC(C)C)c2c(N)n(Cc3ccccc3)c(=O)[nH]c2=O)cc1
Response: 20.5

Request: # query: cell number change of entry O=C(O)c1ccc(NC(=O)C2CC=CCC2C(=O)O)cc1 (stereo not given)
Response: 3.62

Request: # query: cell number change of entry Cc1nc(SCC(=O)c2ccc(Cl)cc2)c([N+](=O)[O-])[nH]1
Response: -28.5

Request: # query: cell number change of entry Cc1c2ccccc2nc2c(F)c(NCCO)c(F)c(F)c12
Response: -2.87

Request: # query: cell number change of entry CCN1CCN(C(C)C(=O)Nc2c(C)n(C)n(-c3ccccc3)c2=O)CC1 (stereo not given)
Response: -2.1

Request: # query: cell number change of entry CCC(CC)NC(=O)COC(=O)c1ccc2c(c1)C(=O)N(Cc1ccco1)C2=O
Response: -0.427

Request: # query: cell number change of entry COC(=O)COc1ccc(S(=O)(=O)N2CCCCCC2)cc1
Response: 19.9

Request: # query: cell number change of entry O=C(O)CN1CCCC1=Nc1ccccc1
Response: 7.34

Request: # query: cell number change of entry O=Cc1ccccc1OS(=O)(=O)c1ccccc1
Response: -9.79

Request: # query: cell number change of entry COC(=O)C1CCN(C(=O)c2ccc(Cl)c(S(=O)(=O)NCc3cccnc3)c2)CC1
Response: 20.6

Request: # query: cell number change of entry COc1ccc(C(C)=O)cc1COc1ccc(F)cc1
Response: -1.38

Request: # query: cell number change of entry COc1ccc(NS(=O)(=O)c2ccc3c(c2)N(C(C)=O)CC(C)S3)c(OC)c1 (stereo not given)
Response: 6.52

Request: # query: cell number change of entry CCCNc1c(F)c(F)c2c(C)c3ccccc3nc2c1F
Response: 13.7

Request: # query: cell number change of entry CCOc1ccc(S(=O)(=O)N2CCC(C(=O)N3CCc4ccccc4C3)CC2)cc1
Response: -23.3

Request: # query: cell number change of entry Cc1nc(Nc2ccccc2Br)c2nnn(Cc3ccccc3)c2n1
Response: 8.19

Request: # query: cell number change of entry O=C(O)C1C2C=CC(O2)C1C(=O)Nc1ccc(S(=O)(=O)N2CCc3ccccc32)cc1 (stereo not given)
Response: -9.33

Request: # query: cell number change of entry Cc1n[nH]c(C)c1S(=O)(=O)N1CCc2ccccc21
Response: -2.98

Request: # query: cell number change of entry O=C(NCCCn1ccnc1)c1cc2cc([N+](=O)[O-])ccc2oc1=O
Response: 15.7

Request: # query: cell number change of entry CCc1ccc(NC(=O)NCC2CCN(Cc3cccc(Cl)c3)CC2)cc1
Response: -23.4

Request: # query: cell number change of entry Cc1cc(SC(C)C(=O)Nc2c(C)n(C)n(-c3ccccc3)c2=O)nc2ccccc12 (stereo not given)
Response: -14.4

Request: # query: cell number change of entry Cc1ccccc1S(=O)(=O)Oc1ccccc1C(=O)Oc1ccccc1
Response: -11.7

Request: # query: cell number change of entry COc1ccc(CNC(=O)Cc2cccs2)cc1OC
Response: 15.3

Request: # query: cell number change of entry COc1ccc(CCNC(=O)CSc2ccc(-c3ccccc3)nn2)cc1
Response: 2.87

Request: # query: cell number change of entry O=C(NCCCN1CCOCC1)c1ccc2c(c1)N(Cc1ccccc1)C(=O)c1ccccc1S2=O (stereo not given)
Response: -4.72

Request: # query: cell number change of entry CCCNc1nc2ccccc2c(=O)[nH]1
Response: -7.59

Request: # query: cell number change of entry Cc1[nH]c2ccccc2c1C(c1ccccn1)N1CCC(C(N)=O)CC1 (stereo not given)
Response: -13.7

Request: # query: cell number change of entry COC(=O)COc1ccc(S(=O)(=O)N2CCc3ccccc3C2)cc1
Response: 22.6

Request: # query: cell number change of entry COc1ccc([N+](=O)[O-])cc1NC(=O)c1cccnc1
Response: 9.82

Request: # query: cell number change of entry CSc1ccc(S(=O)(=O)Nc2c(C)cccc2C)cc1
Response: 1.28

Request: # query: cell number change of entry CCN(CC)C(=O)CC(c1ccc(F)cc1)c1ccco1 (stereo not given)
Response: -17.4

Request: # query: cell number change of entry C/C(=N\NC(=O)c1ccc(Cl)cc1)c1cccc(NC(=O)c2cccnc2)c1
Response: 13.4

Request: # query: cell number change of entry Cc1c2ccccc2nc2c(F)c(N(C)C)c(F)c(F)c12
Response: -4.76

Request: # query: cell number change of entry O=C(Nc1ccc(S(=O)(=O)N2CCc3ccccc32)cc1)C(F)(F)F
Response: -4.4

Request: # query: cell number change of entry Cc1c(NC(=O)C(C)N2C(=O)C3CCCCC3C2=O)c(=O)n(-c2ccccc2)n1C (stereo not given)
Response: 9.88

Request: # query: cell number change of entry O=C(O)C1CC=CCC1C(=O)Nc1ccc(S(=O)(=O)N2CCCc3ccccc32)cc1 (stereo not given)
Response: 4.45

Request: # query: cell number change of entry CCOC(=O)N1CCN(CC(O)c2c[nH]c3ccccc23)CC1 (stereo not given)
Response: 14.4

Request: # query: cell number change of entry CC(C)(C)NC(=O)COC(=O)c1ccc2c(c1)C(=O)N(Cc1ccco1)C2=O
Response: -13.3

Request: # query: cell number change of entry Cc1ccc(-n2nnnc2SCCNS(=O)(=O)c2ccccc2)cc1C
Response: -14.2

Request: # query: cell number change of entry Fc1ccc(COc2ccc(-c3nnco3)cc2)c(Cl)c1
Response: 3.42

Request: # query: cell number change of entry NNC(=O)c1cc(C2CC2)nc2ccc(Br)cc12
Response: -5.67

Request: # query: cell number change of entry CC(C)(C)C(=O)COC(=O)c1ccc2c(c1)C(=O)N(Cc1ccco1)C2=O
Response: 2.14

Request: # query: cell number change of entry Cc1nc(CN2CCCC2=NC#N)n(-c2ccccc2)n1
Response: 7.55

Request: # query: cell number change of entry CN(C(=O)c1ccc(NC(=O)C2CC=CCC2C(=O)O)cc1)c1ccccc1 (stereo not given)
Response: 2.31

Request: # query: cell number change of entry CCOc1ccc(S(=O)(=O)N2CCC(C(=O)N3CCN(Cc4ccccc4)CC3)CC2)cc1
Response: -0.232

----------
- PROTOCOL_NOTES: qHTS Assay for Lipid Storage Modulators in Drosophila S3 Cells;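 note: cells counted by Cell Tracker Red CMTPX staining in the red channel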
- CONDITION: BODIPY lipid droplet fluorescence, 18-24 h, cells fed with added oleic acid; measured here: cell count max response
Out of some 320,000 compounds screened, about 2,100 (0.66%) were called active. Not shown: some 53% with an inconclusive outcome. Shown is part of a subset that was picked to be rich in actives.
So I've got a bunch of compounds here, and I need their cell number change values.
Enter your answer as a number in %; do not include the unit.

Request: # query: cell number change of entry CCN=C1SC(C(=O)Nc2cccc(C)c2)CC(=O)N1CC (stereo unspecified)
Response: -13.5

Request: # query: cell number change of entry COc1cccc(NC(=O)C2CC(=O)n3cnnc3S2)c1 (stereo unspecified)
Response: -29

Request: # query: cell number change of entry Cc1cccc(NC(=O)C2CC(=O)n3cnnc3S2)c1 (stereo unspecified)
Response: -1.17

Request: # query: cell number change of entry O=C(CSc1nc2ccccc2[nH]1)N1CCCCC1
Response: 1.09

Request: # query: cell number change of entry Cc1cc(C(=O)NCCCN2CCN(c3cc(Cl)ccc3C)CC2)n(-c2ccccc2)n1
Response: 12.1

Request: # query: cell number change of entry O=C(CSc1nc2ccccc2[nH]1)N1c2ccccc2Sc2ccccc21
Response: -14

These entries and their values trace back to PubChem BioAssay AID2685.
